Experiment: CREB reporter modulators without forskolin, primary screen, cell-based, PC12, CRE-LacZ reporter, unstimulated (AID 1145)
Details: no forskolin, luminescence, 4.5 h, higher = more signal, called active from +8 up or from −8 down
The compounds listed here are annotated with their z-score.

# testSmiles, z-score
records = [
    ("COCCOC(=O)N1C(=O)[C@@]2(c3cc(C#CCNC(N)=O)ccc31)[C@H](C(=O)N1CCCCCCC1)[C@H]1C(=O)O[C@H](c3ccccc3)[C@H](c3ccccc3)N1[C@@H]2c1ccccc1OCCO", -0.602),
    ("COCCOC(=O)N1C(=O)[C@@]2(c3cc(C#CCCO)ccc31)[C@H](c1ccc(O)cc1)N1[C@H](c3ccccc3)[C@H](c3ccccc3)OC(=O)[C@H]1[C@@H]2C(=O)Nc1nc2ccccc2s1", -1.7),
    ("CCCC[C@@H]1C[C@H]1[C@@H](NC(=O)c1ccccc1)c1ccccc1C(F)(F)F", 1.73),
]
